Item-by-item account of mass density
condition details: 308.15 K; 101.33 kPa; Liquid; Vibrating tube method
All answers are understood in kg/m3, so give the number only.

A selection of reference data follows.
Cc1cccnc1 [3-methylpyridine]: 942.831
c1ccncc1 [pyridine]: 968.166
Cc1ccncc1 [4-methylpyridine]: 940.821

query: Return reported mass density; argument: CCn1cc[n+](C)c1.F[B-](F)(F)F [1-ethyl-3-methylimidazolium tetrafluoroborate]
result: 1272.07

query: What value of measured mass density is listed for Cc1ccccn1 [2-methylpyridine] ?
result: 930.414

----------
condition details: 298.15 K; 101.33 kPa; Liquid; Linear variable-path acoustic interferometer
parameter: speed of sound (m/s)
Response body: numeric value in m/s, unit text excluded.

Example compounds with recorded speed of sound:
Cc1ccncc1: 1431.5
CCn1cc[n+](C)c1.F[B-](F)(F)F [1-ethyl-3-methylimidazolium tetrafluoroborate]: 1619.4
Cc1cccnc1: 1424

query: Query: speed of sound; subject: c1ccncc1
result: 1417.8

query: Need speed of sound of Cc1ccccn1 , thanks.
result: 1380.1
